study_system: urokinase-type plasminogen activator (uPA) (Homo sapiens, UniProt P00749)
protocol: Peptide probe cleavage assay (internally quenched MCA/DNP probes) with uPA
Type: biochemical
condition_context: 20 μM internally quenched peptide probe, 20 nM protease, 37° C.; — = below limit of quantification
Starred links: 1 amine or outer side, 2 acyl side, 3 side chain; linkers in the order of their positions; H or OH if unused. No end group written: not given here. *: point of attachment. K(DNP) = O=C([C@H](CCCCNc1ccc([N+](=O)[O-])cc1[N+](=O)[O-])N[*:1])[*:2]; Mca = COc1ccc2c(CC(=O)*)cc(=O)oc2c1
Reported values of Probe Cleavage (pM/s) uPA for individual entries
Write the number in pM/s without appending the unit.

Known Probe Cleavage (pM/s) uPA results, listed for orientation:
substance: CM PWGLSGAS: internally quenched MCA/DNP probe SEQ ID NO: 699 with one residue replaced by Ala, CM PWGLSGAS (SEQ ID NO: 692) (not fully specified (N-terminus, C-terminus); also: MCA/DNP internal quench labels, places not given here)
Probe Cleavage (pM/s) uPA: 1.80
//
substance: CM PWGLAGRS: internally quenched MCA/DNP probe SEQ ID NO: 699 with one residue replaced by Ala, CM PWGLAGRS (SEQ ID NO: 690) (not fully specified (N-terminus, C-terminus); also: MCA/DNP internal quench labels, places not given here)
Probe Cleavage (pM/s) uPA: 126

Note: attention shifts to another entry.
Item (MCA)-Ser-Pro-Trp-Gly-Leu-Ser-Gly-Arg-Gly-Ser-Lys (DNP)-D-Arg (Mca-SPWGLSGRGS-{K(DNP)-dR}; SMILES COc1ccc2c(CC(=O)N[C@@H](CO)C(=O)N3CCC[C@H]3C(=O)N[C@@H](Cc3c[nH]c4ccccc34)C(=O)NCC(=O)N[C@@H](CC(C)C)C(=O)N[C@@H](CO)C(=O)NCC(=O)N[C@@H](CCCNC(=N)N)C(=O)NCC(=O)N[C@@H](CO)C(=O)N[C@@H](CCCCNc3ccc([N+](=O)[O-])cc3[N+](=O)[O-])C(=O)N[C@H](CCCNC(=N)N)C(=O)O)cc(=O)oc2c1) [CM PWGLSGR] has what recorded Probe Cleavage (pM/s) uPA?
48.3

====

study_system: membrane type serine protease 1 (MT-SP1) (Homo sapiens)
Sequence (Q9Y5Y6 1-855): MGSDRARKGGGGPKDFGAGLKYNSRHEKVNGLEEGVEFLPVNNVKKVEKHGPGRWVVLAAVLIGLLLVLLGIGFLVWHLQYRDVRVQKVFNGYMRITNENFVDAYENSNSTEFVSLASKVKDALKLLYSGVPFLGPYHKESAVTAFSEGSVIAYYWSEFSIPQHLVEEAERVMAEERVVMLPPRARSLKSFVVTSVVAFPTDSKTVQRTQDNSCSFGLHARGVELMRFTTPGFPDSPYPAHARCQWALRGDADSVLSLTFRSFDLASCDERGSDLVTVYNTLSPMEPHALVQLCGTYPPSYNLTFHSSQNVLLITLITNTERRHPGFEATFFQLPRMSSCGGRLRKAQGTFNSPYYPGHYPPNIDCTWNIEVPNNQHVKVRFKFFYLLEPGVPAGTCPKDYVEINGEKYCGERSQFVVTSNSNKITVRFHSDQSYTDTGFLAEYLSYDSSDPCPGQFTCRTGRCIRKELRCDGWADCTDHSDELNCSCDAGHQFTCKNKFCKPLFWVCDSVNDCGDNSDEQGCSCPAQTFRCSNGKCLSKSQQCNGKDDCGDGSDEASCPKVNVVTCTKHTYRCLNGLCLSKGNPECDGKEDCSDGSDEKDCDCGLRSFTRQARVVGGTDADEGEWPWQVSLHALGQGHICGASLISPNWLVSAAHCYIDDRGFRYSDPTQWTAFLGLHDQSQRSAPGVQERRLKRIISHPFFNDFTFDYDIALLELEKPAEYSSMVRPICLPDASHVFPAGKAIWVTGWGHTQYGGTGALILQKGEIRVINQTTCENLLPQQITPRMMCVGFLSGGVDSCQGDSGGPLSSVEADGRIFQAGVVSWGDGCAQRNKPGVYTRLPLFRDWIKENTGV
protocol: Peptide probe cleavage assay (internally quenched MCA/DNP probes) with MT-SP1
Type: biochemical
condition_context: 20 μM internally quenched peptide probe, 20 nM protease, 37° C.
Starred links: 1 amine or outer side, 2 acyl side, 3 side chain; linkers in the order of their positions; H or OH if unused. No end group written: not given here. *: point of attachment. K(DNP) = O=C([C@H](CCCCNc1ccc([N+](=O)[O-])cc1[N+](=O)[O-])N[*:1])[*:2]; Mca = COc1ccc2c(CC(=O)*)cc(=O)oc2c1
observable: Probe Cleavage (pM/s) MT-SP1

// below: answered substances
substance: (MCA)-Ser-Pro-Trp-Gly-Leu-Ser-Gly-Gly-Gly-Ser-Lys (DNP)-D-Arg (Mca-SPWGLSGGGS-{K(DNP)-dR}; SMILES COc1ccc2c(CC(=O)N[C@@H](CO)C(=O)N3CCC[C@H]3C(=O)N[C@@H](Cc3c[nH]c4ccccc34)C(=O)NCC(=O)N[C@@H](CC(C)C)C(=O)N[C@@H](CO)C(=O)NCC(=O)NCC(=O)NCC(=O)N[C@@H](CO)C(=O)N[C@@H](CCCCNc3ccc([N+](=O)[O-])cc3[N+](=O)[O-])C(=O)N[C@H](CCCNC(=N)N)C(=O)O)cc(=O)oc2c1) [CM PWGLSG]
observable: Probe Cleavage (pM/s) MT-SP1
value_unit: pM/s
obs_value: 5.10
--
substance: CM PWGLSGAS: internally quenched MCA/DNP probe SEQ ID NO: 699 with one residue replaced by Ala, CM PWGLSGAS (SEQ ID NO: 692) (not fully specified (N-terminus, C-terminus); also: MCA/DNP internal quench labels, places not given here)
observable: Probe Cleavage (pM/s) MT-SP1
value_unit: pM/s
obs_value: 13.0

1. CM PWGLRS: internally quenched MCA/DNP peptide probe of design SEQ ID NO: 698, CM PWGLRS (SEQ ID NO: 48) (also: MCA/DNP internal quench labels, places not given here)
2. CM RSPWGL: internally quenched MCA/DNP peptide probe of design SEQ ID NO: 698, CM RSPWGL (SEQ ID NO: 90) (also: MCA/DNP internal quench labels, places not given here)
Please state the entry with greater Probe Cleavage (pM/s) MT-SP1 among 1 and 2 . Pick one; state its label.
2
